target: recombinant eEF2K (Homo sapiens (Human), UniProt O00418); assay: eEF2K Kinase-Glo luminescent kinase assay (ATP consumption, peptide substrate); assay type: biochemical; conditions: average of two to four separate experimental measurements, each the average of three replicates
Answer each item with its documented pIC50.
FYI, pIC50 means -log10 of a concentration in mol per litre.

Reported pIC50 of CC1(C)CCc2c(nc3sc(C(N)=O)c(N)c3c2-c2ccco2)C1 [Compound 10] : 6.00

Reported pIC50 of CC1(C)CCc2c1nc1sc(C(N)=O)c(N)c1c2-c1ccc(Cl)s1 [Compound 24] : 5.85

Reported pIC50 of CC1(C)CCc2nc3sc(C(N)=O)c(N)c3c(-c3cncs3)c2C1 [Compound 33] : 5.96

Reported pIC50 of CC1CC(C)(C)Cc2nc3sc(C(N)=O)c(N)c3c(-c3ccco3)c21 (stereo not shown) [Compound 16] : 5.34

* * *

target: recombinant eEF2K (Homo sapiens (Human), UniProt O00418); assay: eEF2K Kinase-Glo luminescent kinase assay (ATP consumption, peptide substrate); format: biochemical; settings: average of two to four separate experimental measurements, each the average of three replicates
Answer each item with its documented IC50.
Reply with just the number (in nM).

Reported IC50 of CC1(C)CCc2c1nc1sc(C(N)=O)c(N)c1c2-c1ccc(Cl)o1 [Compound 9] : 2400

Reported IC50 of NC(=O)c1sc2nc3c(c(-c4cncs4)c2c1N)CCCC31CCCC1 [Compound 42] : 3100

Reported IC50 of CC1(C)C/C(=C\c2ccc(Cl)o2)c2nc3sc(C(N)=O)c(N)c3c(-c3ccc(Cl)o3)c2C1 [Compound 1] : 2700

Reported IC50 of CC1(C)CCc2c(nc3sc(C(N)=O)c(N)c3c2-c2ccc(Cl)c(Cl)c2)C1 [Compound 11] : 23000

Reported IC50 of CC1(C)CCc2c1nc1sc(C(N)=O)c(N)c1c2-c1cc(Br)cs1 [Compound 25] : 800

Reported IC50 of Cc1csc(-c2c3c(nc4sc(C(N)=O)c(N)c24)C(C)(C)CC3)n1 [Compound 32] : 3800

Reported IC50 of CC1(C)CCc2c(nc3sc(C(N)=O)c(N)c3c2-c2cncs2)C1 [Compound 35] : 400

Reported IC50 of NC(=O)c1sc2nc3c(c(-c4ccc(Cl)o4)c2c1N)CCCC3c1ccccc1 (stereo not drawn) [Compound 13] : 31000

Reported IC50 of Cc1ncsc1-c1c2c(nc3sc(C(N)=O)c(N)c13)C(C)(C)CC2 [Compound 40] : 400

Reported IC50 of NC(=O)c1sc2nc3c(c(-c4cncs4)c2c1N)C1CCC3C1 (stereo not drawn) [Compound 43] : 900

Reported IC50 of CC1(C)CCc2c1nc1sc(C(N)=O)c(N)c1c2-c1ccoc1 [Compound 17] : 1100

Reported IC50 of CC1(C)CCCc2c1nc1sc(C(N)=O)c(N)c1c2-c1cc(Br)co1 [Compound 37] : 900

Reported IC50 of CC1(C)CCCc2c1nc1sc(C(N)=O)c(N)c1c2-c1ccc(Cl)o1 [Compound 8] : 4700

Reported IC50 of CC1(C)CCc2c1nc1sc(C(N)=O)c(N)c1c2-c1sccc1Br [Compound 34] : 800

Reported IC50 of CC1(C)CCc2c1nc1sc(C(N)=O)c(N)c1c2-c1cncs1 [Compound 28] : 400

Reported IC50 of Cc1nc(C)c(-c2c3c(nc4sc(C(N)=O)c(N)c24)C(C)(C)CC3)s1 [Compound 41] : 500

Reported IC50 of CC1(C)C/C(=C\c2ccoc2)c2nc3sc(C(N)=O)c(N)c3c(-c3ccoc3)c2C1 [Compound 22] : 6000

Reported IC50 of CC1(C)CCc2nc3sc(C(N)=O)c(N)c3c(-c3ccc(Cl)o3)c2C1 [Compound 2] : 1100
